Sourced from ChEMBL document CHEMBL3526071

assay: Apparent permeability from basolateral to apical side in human Caco2 cells at 500 uM at pH 7.4 after 1 hr by HPLC-DAD analysis; type: ADME, cell-based; conditions: Caco-2, pH 7.4
Provide the reported Papp B→A at 1 h, 500 µM of each item.
The reply should be a number in ×10⁻⁶ cm/s, with the unit left off.

Looking up COc1ccc(/C=C/C(=O)O)cc1OC , I found its Papp B→A at 1 h, 500 µM recorded as 21.7

Looking up COc1cc(/C=C/C(=O)O[C@@H]2C[C@](O)(C(=O)O)C[C@@H](O)[C@H]2O)ccc1O , I found its Papp B→A at 1 h, 500 µM recorded as 0.28

Looking up COc1cc(/C=C/C(=O)O)ccc1O [FERULATE] , I found its Papp B→A at 1 h, 500 µM recorded as 10.2

Looking up O=C(/C=C/c1ccc(O)c(O)c1)O[C@@H]1C[C@](O)(C(=O)O)C[C@@H](OC(=O)/C=C/c2ccc(O)c(O)c2)[C@H]1O , I found its Papp B→A at 1 h, 500 µM recorded as 0.72

Looking up O=C(O)/C=C/c1ccc(O)c(O)c1 , I found its Papp B→A at 1 h, 500 µM recorded as 1.7

Looking up O=C(/C=C/c1ccc(O)c(O)c1)O[C@@H]1C[C@](O)(C(=O)O)C[C@@H](O)[C@H]1O , I found its Papp B→A at 1 h, 500 µM recorded as 0.33

----------
Provide the reported Papp at 1 h, 500 µM of each item.
experiment: Apparent permeability across human Caco2 cells with high TEER resistance at 500 uM after 1 hr by HPLC-DAD analysis; type: ADME, cell-based; conditions: Caco-2
The reply should be a number in ×10⁻⁶ cm/s, with the unit left off.

Looking up O=C(/C=C/c1ccc(O)c(O)c1)O[C@@H]1C[C@](O)(C(=O)O)C[C@@H](OC(=O)/C=C/c2ccc(O)c(O)c2)[C@H]1O , I found its Papp at 1 h, 500 µM recorded as 0.05

Looking up COc1cc(/C=C/C(=O)O[C@@H]2C[C@](O)(C(=O)O)C[C@@H](O)[C@H]2O)ccc1O , I found its Papp at 1 h, 500 µM recorded as 0.31

Looking up COc1cc(/C=C/C(=O)O)ccc1O [FERULATE] , I found its Papp at 1 h, 500 µM recorded as 10.8

Looking up O=C(/C=C/c1ccc(O)c(O)c1)O[C@@H]1C[C@](O)(C(=O)O)C[C@@H](O)[C@H]1O [CHLOROGENIC ACID] , I found its Papp at 1 h, 500 µM recorded as 0.25

----------
test: Efflux ratio of apparent permeability from basolateral to apical side over apical to basolateral side in human Caco2 cells at 500 uM after 1 hr by HPLC-DAD analysis; type: ADME, cell-based; details: Caco-2
propertyMeasured: efflux ratio at 1 h, 500 µM
Returns: the value as a bare number; no unit string appended.

Looking up COc1ccc(/C=C/C(=O)O)cc1OC , I found its efflux ratio at 1 h, 500 µM recorded as 1.1

Looking up COc1cc(/C=C/C(=O)O)ccc1O [FERULATE] , I found its efflux ratio at 1 h, 500 µM recorded as 1

Looking up COc1cc(/C=C/C(=O)O[C@@H]2C[C@](O)(C(=O)O)C[C@@H](O)[C@H]2O)ccc1O , I found its efflux ratio at 1 h, 500 µM recorded as 1.1

Looking up O=C(/C=C/c1ccc(O)c(O)c1)O[C@@H]1C[C@](O)(C(=O)O)C[C@@H](OC(=O)/C=C/c2ccc(O)c(O)c2)[C@H]1O , I found its efflux ratio at 1 h, 500 µM recorded as 5.4

----------
Provide the reported bioavailability of each item.
assay: Oral bioavailability in human; type: ADME, organism-based; conditions: in vivo
The reply should be a number in %, with the unit left off.

Looking up Cc1c(N(C)C)c(=O)n(-c2ccccc2)n1C [AMINOPYRINE] , I found its bioavailability recorded as 100

Looking up OC[C@@H](O)[C@@H](O)[C@H](O)[C@H](O)CO [MANNITOL] , I found its bioavailability recorded as 16

Looking up CC(C)(C)NCC(O)COc1ccc(NC(=O)NC2CCCCC2)cc1 (stereo unspecified) [TALINOLOL] , I found its bioavailability recorded as 55

Looking up O=C(O)c1ccccc1O [SALICYLIC ACID] , I found its bioavailability recorded as 100

Looking up CC(=O)Oc1ccccc1C(=O)O [ASPIRIN] , I found its bioavailability recorded as 100

----------
Provide the reported Papp A→B at 1 h, 500 µM of each item.
test: Apparent permeability from apical to basolateral side in human Caco2 cells at 500 uM at pH 7.4 after 1 hr by HPLC-DAD analysis; assay type: ADME, cell-based; conditions: Caco-2, pH 7.4
Provide a numeric answer, followed by its unit.

Looking up O=C(O)/C=C/c1ccc(O)c(O)c1 , I found its Papp A→B at 1 h, 500 µM recorded as 1.4 ×10⁻⁶ cm/s

Looking up COc1cc(/C=C/C(=O)O)ccc1O [FERULATE] , I found its Papp A→B at 1 h, 500 µM recorded as 10 ×10⁻⁶ cm/s

Looking up COc1ccc(/C=C/C(=O)O)cc1OC , I found its Papp A→B at 1 h, 500 µM recorded as 19.9 ×10⁻⁶ cm/s

Looking up O=C(/C=C/c1ccc(O)c(O)c1)O[C@@H]1C[C@](O)(C(=O)O)C[C@@H](OC(=O)/C=C/c2ccc(O)c(O)c2)[C@H]1O , I found its Papp A→B at 1 h, 500 µM recorded as 0.14 ×10⁻⁶ cm/s

Looking up COc1cc(/C=C/C(=O)O[C@@H]2C[C@](O)(C(=O)O)C[C@@H](O)[C@H]2O)ccc1O , I found its Papp A→B at 1 h, 500 µM recorded as 0.25 ×10⁻⁶ cm/s

Looking up O=C(/C=C/c1ccc(O)c(O)c1)O[C@@H]1C[C@](O)(C(=O)O)C[C@@H](O)[C@H]1O , I found its Papp A→B at 1 h, 500 µM recorded as 0.38 ×10⁻⁶ cm/s

----------
assay: 1-Octanol-water distribution coefficient, log D of the compound at pH 7.4 by shake flask method; assay type: physicochemical
propertyMeasured: logD
Returns: the value as a bare number; no unit string appended.

Looking up O=C(/C=C/c1ccc(O)c(O)c1)O[C@@H]1C[C@](O)(C(=O)O)C[C@@H](OC(=O)/C=C/c2ccc(O)c(O)c2)[C@H]1O , I found its logD recorded as -1.04

Looking up COCCc1ccc(OCC(O)CNC(C)C)cc1 (stereo not drawn) [METOPROLOL] , I found its logD recorded as -0.24

Looking up O=C(/C=C/c1ccc(O)c(O)c1)O[C@@H]1C[C@](O)(C(=O)O)C[C@@H](O)[C@H]1O [CHLOROGENIC ACID] , I found its logD recorded as -3.05

Looking up COc1cc(/C=C/C(=O)O[C@@H]2C[C@](O)(C(=O)O)C[C@@H](O)[C@H]2O)ccc1O , I found its logD recorded as -2.79

Looking up COc1ccc(/C=C/C(=O)O)cc1OC , I found its logD recorded as -1.01

Looking up COc1cc(/C=C/C(=O)O)ccc1O [FERULATE] , I found its logD recorded as -1.19

Looking up O=C(O)c1ccccc1O [SALICYLIC ACID] , I found its logD recorded as -2.34

Looking up C=CCc1ccccc1OCC(O)CNC(C)C (stereo not drawn) [ALPRENOLOL] , I found its logD recorded as 1.08
